Overview of recorded pKi for various compounds
tgt: Transient receptor potential cation channel subfamily V member 1 (Homo sapiens, UniProt Q8NER1)
Sequence (Q8NER1 whole entry): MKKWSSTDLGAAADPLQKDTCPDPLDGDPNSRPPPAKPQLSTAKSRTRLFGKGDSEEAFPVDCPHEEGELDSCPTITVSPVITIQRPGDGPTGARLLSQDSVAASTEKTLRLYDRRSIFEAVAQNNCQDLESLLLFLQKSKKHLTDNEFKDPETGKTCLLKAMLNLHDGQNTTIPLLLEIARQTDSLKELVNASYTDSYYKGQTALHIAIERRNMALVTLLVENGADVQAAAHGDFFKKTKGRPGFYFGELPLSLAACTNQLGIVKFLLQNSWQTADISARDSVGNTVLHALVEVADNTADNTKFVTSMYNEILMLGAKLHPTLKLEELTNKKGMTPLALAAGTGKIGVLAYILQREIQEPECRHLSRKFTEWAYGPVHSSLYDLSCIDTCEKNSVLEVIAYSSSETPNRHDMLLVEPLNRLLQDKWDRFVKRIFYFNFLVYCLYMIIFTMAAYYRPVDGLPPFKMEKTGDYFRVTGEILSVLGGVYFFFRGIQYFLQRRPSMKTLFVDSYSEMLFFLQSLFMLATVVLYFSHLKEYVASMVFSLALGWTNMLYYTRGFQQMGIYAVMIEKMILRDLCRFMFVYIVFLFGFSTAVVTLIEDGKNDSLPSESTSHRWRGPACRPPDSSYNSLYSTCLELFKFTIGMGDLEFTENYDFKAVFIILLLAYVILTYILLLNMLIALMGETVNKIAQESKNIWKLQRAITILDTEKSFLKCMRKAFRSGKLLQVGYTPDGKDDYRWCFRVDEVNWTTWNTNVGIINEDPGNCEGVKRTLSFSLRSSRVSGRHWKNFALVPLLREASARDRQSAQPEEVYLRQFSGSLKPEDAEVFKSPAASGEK
protocol: Antagonist activity at human TRPV1 expressed in CHO cells assessed as inhibition of capsaicin-induced (45)Ca2+ uptake after 5 mins by liquid scintillation counting analysis
Format: cell-based
assay_context: read-out: Ki
pKi: −log10 of the molar value.
property_name: pKi

[[record]]
compound = "CC(C(=O)NCc1ccc(C(F)(F)F)nc1N(C(C)C)S(=O)(=O)c1ccccc1)c1ccc(NS(C)(=O)=O)c(F)c1 (configuration not stated)"
experimental_value = 7.56

[[record]]
compound = "CC(C(=O)NCc1ccc(C(F)(F)F)nc1N(C)S(=O)(=O)c1ccccc1)c1ccc(NS(C)(=O)=O)c(F)c1 (configuration not stated)"
experimental_value = 7.00

[[record]]
compound = "Cc1ccc(CN(c2nc(C(F)(F)F)ccc2CNC(=O)C(C)c2ccc(NS(C)(=O)=O)c(F)c2)S(=O)(=O)c2ccc(F)cc2)cc1 (configuration not stated)"
experimental_value = 8.15

[[record]]
compound = "CC(C(=O)NCc1ccc(C(F)(F)F)nc1N(Cc1ccc(Cl)cc1)S(=O)(=O)c1ccc(F)cc1)c1ccc(NS(C)(=O)=O)c(F)c1 (configuration not stated)"
experimental_value = 8.22

[[record]]
compound = "COc1ccc(CN(c2nc(C(F)(F)F)ccc2CNC(=O)C(C)c2ccc(NS(C)(=O)=O)c(F)c2)S(=O)(=O)c2ccc(F)cc2)cc1 (configuration not stated)"
experimental_value = 8.10

[[record]]
compound = "CC(C(=O)NCc1ccc(C(F)(F)F)nc1N(Cc1ccc(F)cc1)S(=O)(=O)c1ccc(F)cc1)c1ccc(NS(C)(=O)=O)c(F)c1 (configuration not stated)"
experimental_value = 8.52

[[record]]
compound = "CCS(=O)(=O)N(Cc1ccccc1)c1nc(C(F)(F)F)ccc1CNC(=O)C(C)c1ccc(NS(C)(=O)=O)c(F)c1 (configuration not stated)"
experimental_value = 7.92

[[record]]
compound = "CC(C(=O)NCc1ccc(C(F)(F)F)nc1N(CC1CCCCC1)S(=O)(=O)c1ccccc1)c1ccc(NS(C)(=O)=O)c(F)c1 (configuration not stated)"
experimental_value = 8.00

[[record]]
compound = "C[C@H](C(=O)NCc1ccc(C(F)(F)F)nc1N(Cc1ccccc1)S(=O)(=O)c1ccccc1)c1ccc(NS(C)(=O)=O)c(F)c1"
experimental_value = 8.74

[[record]]
compound = "CC(C(=O)NCc1ccc(C(F)(F)F)nc1N(Cc1ccccc1)S(=O)(=O)c1ccc(Cl)cc1)c1ccc(NS(C)(=O)=O)c(F)c1 (configuration not stated)"
experimental_value = 8.07

[[record]]
compound = "CC(C(=O)NCc1ccc(C(F)(F)F)nc1N(Cc1ccc(F)cc1)S(=O)(=O)c1ccccc1)c1ccc(NS(C)(=O)=O)c(F)c1 (configuration not stated)"
experimental_value = 8.13

[[record]]
compound = "CC(C(=O)NCc1ccc(C(F)(F)F)nc1N(c1ccc(F)cc1)S(=O)(=O)c1ccccc1)c1ccc(NS(C)(=O)=O)c(F)c1 (configuration not stated)"
experimental_value = 7.93

[[record]]
compound = "CC(C(=O)NCc1ccc(C(F)(F)F)nc1N(Cc1ccccc1)S(C)(=O)=O)c1ccc(NS(C)(=O)=O)c(F)c1 (configuration not stated)"
experimental_value = 7.60

[[record]]
compound = "CC(C(=O)NCc1ccc(C(F)(F)F)nc1N(Cc1ccccc1)S(=O)(=O)C(C)C)c1ccc(NS(C)(=O)=O)c(F)c1 (configuration not stated)"
experimental_value = 8.21

[[record]]
compound = "Cc1ccc(CN(c2nc(C(F)(F)F)ccc2CNC(=O)C(C)c2ccc(NS(C)(=O)=O)c(F)c2)S(=O)(=O)c2ccccc2)cc1 (configuration not stated)"
experimental_value = 8.26

[[record]]
compound = "COc1ccc(CN(c2nc(C(F)(F)F)ccc2CNC(=O)C(C)c2ccc(NS(C)(=O)=O)c(F)c2)S(=O)(=O)c2ccccc2)cc1 (configuration not stated)"
experimental_value = 8.67

[[record]]
compound = "CC(C(=O)NCc1ccc(C(F)(F)F)nc1N(Cc1ccccc1)S(=O)(=O)c1ccc(F)cc1)c1ccc(NS(C)(=O)=O)c(F)c1 (configuration not stated)"
experimental_value = 8.41

[[record]]
compound = "CC(C(=O)NCc1ccc(C(F)(F)F)nc1N(c1ccccc1)S(=O)(=O)c1ccccc1)c1ccc(NS(C)(=O)=O)c(F)c1 (configuration not stated)"
experimental_value = 8.22

[[record]]
compound = "CC1CCN(c2nc(C(F)(F)F)ccc2CNC(=O)C(C)c2ccc(NS(C)(=O)=O)c(F)c2)CC1 (configuration not stated)"
experimental_value = 8.65

[[record]]
compound = "CC(C(=O)NCc1ccc(C(F)(F)F)nc1N(Cc1ccccc1)S(=O)(=O)c1ccccc1)c1ccc(NS(C)(=O)=O)c(F)c1 (configuration not stated)"
experimental_value = 8.23

[[record]]
compound = "CC(C(=O)NCc1ccc(C(F)(F)F)nc1N(Cc1ccc(Cl)cc1)S(=O)(=O)c1ccccc1)c1ccc(NS(C)(=O)=O)c(F)c1 (configuration not stated)"
experimental_value = 8.24

[[record]]
compound = "CC1CCN(c2nc(C(F)(F)F)ccc2CNC(=O)[C@@H](C)c2ccc(NS(C)(=O)=O)c(F)c2)CC1"
experimental_value = 8.90

